Target: HMGCR (TM1-8)-GFP (Cricetulus griseus, UniProt P00347)
Sequence (P00347 1-346): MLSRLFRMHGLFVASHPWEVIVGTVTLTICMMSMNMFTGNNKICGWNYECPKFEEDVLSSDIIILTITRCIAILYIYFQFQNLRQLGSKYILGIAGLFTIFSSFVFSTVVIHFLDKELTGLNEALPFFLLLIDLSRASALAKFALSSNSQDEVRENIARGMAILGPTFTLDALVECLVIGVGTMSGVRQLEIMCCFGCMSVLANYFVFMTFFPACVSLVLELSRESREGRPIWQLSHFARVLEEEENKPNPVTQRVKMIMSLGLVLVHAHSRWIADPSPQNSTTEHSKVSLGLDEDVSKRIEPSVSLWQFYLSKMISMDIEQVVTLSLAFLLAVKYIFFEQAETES
Assay: HMGCR (TM1-8)-GFP fluorescent assay (high-content imaging) in CHG cells
Conditions: read-out: Mean (HMGCR (TM1-8)-GFP signal relative to 0 μM = 100)
Listed compounds paired with reported remaining activity at 0.313 µM
The answer is to be given in %; state only the numeric part.

>  <compound>
CC(O)CCCCC[C@@H](C)C1CCC2C3C(CC[C@@]21C)[C@@]1(C)CC[C@H](O)C(C)(C)C1=C[C@@H]3O (stereo partly shown)

>  <outcome-measure>
remaining activity at 0.313 µM

>  <numeric-value>
78.3

$$$$
>  <compound>
CCC(O)(CC)CCC[C@@H](C)C1CCC2C3C(CC[C@@]21C)[C@@]1(C)CC[C@H](O)C(C)(C)C1=C[C@@H]3O (stereo partly shown)

>  <outcome-measure>
remaining activity at 0.313 µM

>  <numeric-value>
75.8

$$$$
>  <compound>
C[C@H](CCCO)C1CCC2C3C(CC[C@@]21C)[C@@]1(C)CC[C@H](O)C(C)(C)C1=C[C@@H]3O (stereo partly shown)

>  <outcome-measure>
remaining activity at 0.313 µM

>  <numeric-value>
102

$$$$

Which value of remaining activity at 0.313 µM has been reported for C[C@H](CCC(=O)O)C1CCC2C3C(CC[C@@]21C)[C@@]1(C)CC[C@H](O)C(C)(C)C1=C[C@@H]3O (stereo partly shown) in the records?
106

###

Molecular target: HMGCR (TM1-8)-GFP (Cricetulus griseus, UniProt P00347)
Assay: HMGCR (TM1-8)-GFP fluorescent assay (high-content imaging) in CHG cells
Details: read-out: Mean (HMGCR (TM1-8)-GFP signal relative to 0 μM = 100)
outcome-measure: remaining activity at 0.313 µM (%)
The answer is to be given in %; state only the numeric part.

Worked examples, 10 compounds total:
>  <compound>
C[C@H](CCCCCCO)C1CCC2C3C(CC[C@@]21C)[C@@]1(C)CC[C@H](O)C(C)(C)C1=C[C@@H]3O (stereo partly shown)

>  <system-tested>
HMGCR (TM1-8)-GFP (Cricetulus griseus, UniProt P00347)

>  <remaining activity at 0.313 µM, %>
91.3

$$$$
>  <compound>
C=CCC(O)(CC=C)CC[C@@H](C)C1CCC2C3C(CC[C@@]21C)[C@@]1(C)CC[C@H](O)C(C)(C)C1=C[C@@H]3O (stereo partly shown)

>  <system-tested>
HMGCR (TM1-8)-GFP (Cricetulus griseus, UniProt P00347)

>  <remaining activity at 0.313 µM, %>
110

$$$$
>  <compound>
C=CCC(O)(CC=C)CCCCC[C@@H](C)C1CCC2C3C(CC[C@@]21C)[C@@]1(C)CC[C@H](O)C(C)(C)C1=C[C@@H]3O (stereo partly shown)

>  <system-tested>
HMGCR (TM1-8)-GFP (Cricetulus griseus, UniProt P00347)

>  <remaining activity at 0.313 µM, %>
96

$$$$
>  <compound>
C=CCC(O)(CC=C)CCCC[C@@H](C)C1CCC2C3C(CC[C@@]21C)[C@@]1(C)CC[C@H](O)C(C)(C)C1=C[C@@H]3O (stereo partly shown)

>  <system-tested>
HMGCR (TM1-8)-GFP (Cricetulus griseus, UniProt P00347)

>  <remaining activity at 0.313 µM, %>
104

$$$$
>  <compound>
CCC(O)(CC)CC[C@@H](C)C1CCC2C3C(CC[C@@]21C)[C@@]1(C)CC[C@H](O)C(C)(C)C1=C[C@@H]3O (stereo partly shown)

>  <system-tested>
HMGCR (TM1-8)-GFP (Cricetulus griseus, UniProt P00347)

>  <remaining activity at 0.313 µM, %>
90.2

$$$$
>  <compound>
C[C@H](CCC(C)(C)O)C1CCC2C3C(CC[C@@]21C)[C@@]1(C)CC[C@H](O)C(C)(C)C1=C[C@@H]3O (stereo partly shown)

>  <system-tested>
HMGCR (TM1-8)-GFP (Cricetulus griseus, UniProt P00347)

>  <remaining activity at 0.313 µM, %>
94.2

$$$$
>  <compound>
CCC(O)(CC)CCCC[C@@H](C)C1CCC2C3C(CC[C@@]21C)[C@@]1(C)CC[C@H](O)C(C)(C)C1=C[C@@H]3O (stereo partly shown)

>  <system-tested>
HMGCR (TM1-8)-GFP (Cricetulus griseus, UniProt P00347)

>  <remaining activity at 0.313 µM, %>
74

$$$$
>  <compound>
C[C@H](CCCCCC(C)(C)O)C1CCC2C3C(CC[C@@]21C)[C@@]1(C)CC[C@H](O)C(C)(C)C1=C[C@@H]3O (stereo partly shown)

>  <system-tested>
HMGCR (TM1-8)-GFP (Cricetulus griseus, UniProt P00347)

>  <remaining activity at 0.313 µM, %>
72.4

$$$$
>  <compound>
CCC(O)CCCC[C@@H](C)C1CCC2C3C(CC[C@@]21C)[C@@]1(C)CC[C@H](O)C(C)(C)C1=C[C@@H]3O (stereo partly shown)

>  <system-tested>
HMGCR (TM1-8)-GFP (Cricetulus griseus, UniProt P00347)

>  <remaining activity at 0.313 µM, %>
77.2

$$$$
>  <compound>
COCCCC[C@@H](C)C1CCC2C3C(CC[C@@]21C)[C@@]1(C)CC[C@H](O)C(C)(C)C1=C[C@@H]3O (stereo partly shown)

>  <system-tested>
HMGCR (TM1-8)-GFP (Cricetulus griseus, UniProt P00347)

>  <remaining activity at 0.313 µM, %>
98

$$$$

Hi! What's the reported remaining activity at 0.313 µM for C[C@H](CCCCO)C1CCC2C3C(CC[C@@]21C)[C@@]1(C)CC[C@H](O)C(C)(C)C1=C[C@@H]3O (stereo partly shown) on HMGCR (TM1-8)-GFP (Cricetulus griseus, UniProt P00347)?
94.2

Hi! What's the reported remaining activity at 0.313 µM for C=CCC(O)CCCC[C@@H](C)C1CCC2C3C(CC[C@@]21C)[C@@]1(C)CC[C@H](O)C(C)(C)C1=C[C@@H]3O (stereo partly shown) on HMGCR (TM1-8)-GFP (Cricetulus griseus, UniProt P00347)?
76.5

Hi! What's the reported remaining activity at 0.313 µM for CCC(O)CC[C@@H](C)C1CCC2C3C(CC[C@@]21C)[C@@]1(C)CC[C@H](O)C(C)(C)C1=C[C@@H]3O (stereo partly shown) on HMGCR (TM1-8)-GFP (Cricetulus griseus, UniProt P00347)?
104

###

Biological target: HMGCR (TM1-8)-GFP (Cricetulus griseus, UniProt P00347)
Sequence (P00347 1-346): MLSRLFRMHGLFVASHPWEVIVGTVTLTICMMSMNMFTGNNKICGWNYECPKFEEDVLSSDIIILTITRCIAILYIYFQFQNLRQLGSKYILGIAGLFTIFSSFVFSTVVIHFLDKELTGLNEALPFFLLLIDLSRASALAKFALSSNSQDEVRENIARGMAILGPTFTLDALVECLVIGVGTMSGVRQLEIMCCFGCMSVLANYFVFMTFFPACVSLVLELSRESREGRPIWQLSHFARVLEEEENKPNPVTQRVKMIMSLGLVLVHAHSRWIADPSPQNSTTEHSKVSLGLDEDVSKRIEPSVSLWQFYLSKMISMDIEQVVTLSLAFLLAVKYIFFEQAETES
Experiment: HMGCR (TM1-8)-GFP fluorescent assay (high-content imaging) in CHG cells
Settings: 16 h, read-out: HMGCR (TM1-8)-GFP fluorescent intensity, mean
outcome-measure: remaining activity at 30 µM

Worked examples, 5 molecules total:
>  <molecule>
CC(C)CCC[C@@H](C)[C@H]1CCC2C3C(CC[C@@]21C)[C@@]1(C)CC[C@H](O)C(C)(C)C1=C[C@H]3N=[N+]=[N-] (stereo partly drawn)

>  <remaining activity at 30 µM>
93%

$$$$
>  <molecule>
CCC1(CC)C2=CCC3C(CC[C@@]4(C)C3CC[C@@H]4[C@H](C)CCCC(C)C)[C@@]2(C)CC[C@@H]1O (stereo partly drawn)

>  <remaining activity at 30 µM>
93.9%

$$$$
>  <molecule>
CC(C)CCC[C@@H](C)[C@H]1CCC2C3CC=C4C5(CCCCC5)[C@@H](O)CC[C@]4(C)C3CC[C@@]21C (stereo partly drawn)

>  <remaining activity at 30 µM>
101%

$$$$
>  <molecule>
CC(C)CCC[C@@H](C)[C@H]1CCC2C3C(CC[C@@]21C)[C@@]1(C)CC[C@H](O)C(C)(C)C1=C[C@H]3N (stereo partly drawn)

>  <remaining activity at 30 µM>
99.6%

$$$$
>  <molecule>
CC(=O)N[C@@H]1C=C2C(C)(C)[C@@H](O)CC[C@]2(C)C2CC[C@@]3(C)C(CC[C@@H]3[C@H](C)CCCC(C)C)C21 (stereo partly drawn)

>  <remaining activity at 30 µM>
93.5%

$$$$

As a next step, examine the molecule that follows.
Which value of remaining activity at 30 µM has been reported for CC(C)CCC[C@@H](C)[C@H]1CCC2C3C(=NO)C=C4C(C)(C)[C@@H](O)CC[C@]4(C)C3CC[C@@]21C (stereo partly drawn) in the records?
62.1%
